The values you see were collected from patent US20230272056A1.

target: T1, human LAP-TGFB1 Fc fusion (human); assay: SPR pH 7.4, antigen captured on Fab 54BLH
T1 construct: also called human LAP-TGFβ1-Fc; human LAP-TGFβ-Fc isoform 1
T1 sequence (chain, as listed by the source limits assumed): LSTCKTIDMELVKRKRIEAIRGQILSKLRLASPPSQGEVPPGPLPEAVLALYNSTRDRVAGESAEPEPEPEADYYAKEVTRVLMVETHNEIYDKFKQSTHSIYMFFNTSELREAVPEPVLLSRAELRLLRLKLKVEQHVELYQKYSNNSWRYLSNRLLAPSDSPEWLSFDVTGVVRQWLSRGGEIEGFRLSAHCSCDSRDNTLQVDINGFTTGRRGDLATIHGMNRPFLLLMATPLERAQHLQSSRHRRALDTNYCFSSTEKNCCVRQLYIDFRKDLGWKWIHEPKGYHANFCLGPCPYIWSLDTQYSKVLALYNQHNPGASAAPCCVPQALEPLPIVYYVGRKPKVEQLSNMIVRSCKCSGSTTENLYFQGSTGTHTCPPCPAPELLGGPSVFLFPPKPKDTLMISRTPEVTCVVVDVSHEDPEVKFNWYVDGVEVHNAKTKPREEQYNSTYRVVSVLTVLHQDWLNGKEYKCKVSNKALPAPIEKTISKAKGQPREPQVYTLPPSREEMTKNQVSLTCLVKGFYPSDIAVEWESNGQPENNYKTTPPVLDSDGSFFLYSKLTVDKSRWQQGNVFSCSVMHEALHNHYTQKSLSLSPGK
property: koff (s⁻¹)
Report as a plain number; the unit s⁻¹ is understood.

Ask | Field request: koff | item: 19BLM (antibody, human IgG1, kappa, L234A L235A, V domains shown, IgG1 L234A L235A D265S/kappa; also called 82BLH; 55BMD) VH: EVQLVQSGAEVKKPGASVKVSCKASGYTFTSYDMHWVRQAPGQGLEWMGRIDPQSGGIKYAQKFQGRATLTVDTSTSTAYMELSRLRSDDTAVYYCARYDHGGYFDVWGQGTLVTVSS VL: DIQMTQSPSSLSASVGDRVTITCRASQDIYNYLNWYQQKPGKAVKLLIYYTSYLETGVPSRFSGSGSGTDYTLTISSLQPEDFATYFCQQGDTLPWTFGQGTKLEIKR
Reply | 0.014
